Answer each item with its documented MIC.
tested on: MRSA MW2 (USA400); test: In vitro susceptibility, broth microdilution (MIC); format: cell-based, methicillin resistant S. aureus; settings: Staphylococcus aureus; MRSA MW2 (USA400); read-out: Antimicrobial activity (MIC) MSRA USA400
Give bare numbers, in µg/mL.

A selection of reference data follows.
O=C(O)CCCC(=O)c1c(-c2cc3cc(Cl)ccc3[nH]2)[nH]c2cc(Br)ccc12; 8
CN(C)CCc1c(-c2cc3cc(Cl)ccc3[nH]2)[nH]c2cc(Br)ccc12; 4
CN1CCN(CCCNC(=O)c2c(/C=C/c3ccc(Cl)cc3)[nH]c3cc(Br)ccc23)CC1; 32

Summary for this molecule, CN1CCN(CCNC(=O)CCCC(=O)c2c(-c3cc4cc(Cl)ccc4[nH]3)[nH]c3cc(Br)ccc23)CC1 : MIC is 8
